Just for reference, patent US20200392236A1 is where these values come from.

biological target: T1, BCMA peptide 30SNTPPLTCQR39 (human); assay: CLIPS peptide array ELISA
T1 construct: Peptide of the CLIPS library; recognised in a linear form
T1 peptide: SNTPPLTCQR

[
  {
    "binder": "BCMA-1 anti-BCMA scFv (scFv, VH-(G4S)3-VL scFv) scFv: QVQLVQSGGGLVQPGRSLRLSCTASGFTFGDYAMSWFRQAPGKGLEWVGFIRSKAYGGTTEYAASVKGRFTISRDDSKSIAYLQMNSLKTEDTAVYYCAAWSAPTDYWGQGTLVTVSSGGGGSGGGGSGGGGSDIVMTQSPDSLSVSPGERATISCKSSQSVLSTSNNKNYLAWYQQKPGQPPRLLLYWASTREAGVPDRFSGSGSGTDFTLTISSLQAEDVAVYYCQQYFSSPYTFGHGTKLEIK",
    "binding result": "binds"
  },
  {
    "binder": "BCMA-23 anti-BCMA scFv (scFv, BCMA-22 with the first residue of CDR-L3 (cysteine) replaced by serine) scFv: EVQLVESGGGLVKPGGSLRLSCAASGFTFSDYYMSWIRQAPGKGLEWVSYISSSGSTIYYADSVKGRFTISRDNAKNSLYLQMNSLRAEDTAVYYCAKVDGDYTEDYWGQGTLVTVSSGGGGSGGGGSGGGGSQSALTQPASVSGSPGQSITISCTGSSSDVGKYNLVSWYQQPPGKAPKLIIYDVNKRPSGVSNRFSGSKSGNTATLTISGLQGDDEADYYCSSYGGSRSYVFGTGTKVTVL",
    "binding result": "binds"
  },
  {
    "binder": "BCMA-25 anti-BCMA scFv (scFv, VH-(G4S)3-VL scFv) scFv: EVQLVQSGGGLVQPGRSLRLSCTASGFTFGDYAMSWFRQAPGKGLEWVGFIRSKAYGGTTEYAASVKGRFTISRDDSKSIAYLQMNSLKTEDTAVYYCAAWSAPTDYWGQGTLVTVSSGGGGSGGGGSGGGGSDIQMTQSPAFLSASVGDRVTVTCRASQGISNYLAWYQQKPGNAPRLLIYSASTLQSGVPSRFRGTGYGTEFSLTIDSLQPEDFATYYCQQSYTSRQTFGPGTRLDIK",
    "binding result": "binds"
  }
]
